Reported growth by item:
- Test system: Klebsiella aerogenes DSM 30053
- Method: growth (OD595) fold change vs plate DMSO controls (fold change (ratio)); higher = more growth
- Measurement setup: incubation time: 27 h, anaerobic, 37 °C
Counter-ions that a name gives are not always drawn.
Please give the numeric answer without any surrounding text.

# Compound, growth
records = [
    ("CC(=O)N[C@H]1[C@H]([C@H](O)[C@H](O)CO)OC(C(=O)O)=C[C@@H]1NC(=N)N [Zanamivir] (20 µM)", 0.977),
    ("COC(=O)Nc1nc2cc(Sc3ccccc3)ccc2[nH]1 [Fenbendazole] (20 µM)", 0.98),
]

INPUT: What does the data say about its growth? Entry: N=C(N)NCC1COC2(CCCCC2)O1 (stereo not drawn) [Guanadrel sulfate] (20 µM)
OUTPUT: 0.986

INPUT: Same question, CC1=NN(c2ccccc2)C(=O)C1 [Edaravone] (20 µM) this time
OUTPUT: 1.02

INPUT: Then COc1ccc(-c2noc(CC(=O)O)c2-c2ccc(OC)cc2)cc1 [Mofezolac] (20 µM) ?
OUTPUT: 1

INPUT: Please give the result for CN1C(C(=O)Nc2ccccn2)=C(O)c2ccccc2S1(=O)=O [Piroxicam] (20 µM) too.
OUTPUT: 1.02

INPUT: Moving on to the next compound: CC(=O)CC(c1ccccc1)c1c(O)c2ccccc2oc1=O (stereo not drawn) (20 µM)
OUTPUT: 1

INPUT: Continue with CCCCCN(CCCCC)C(=O)C(CCC(=O)O)NC(=O)c1ccc(Cl)c(Cl)c1 (stereo not drawn) [Lorglumide sodium salt] (20 µM)
OUTPUT: 1.02

----------
- Test system: Klebsiella aerogenes DSM 30053
- Method: fold change of Putrescine concentration vs plate DMSO controls (fold change (ratio)); higher = more amine produced, active = hit call of the paper (significant change in both replicates, either direction)
- Measurement setup: incubation time: 27 h, anaerobic, 37 °C
Quantity: fold change of Putrescine concentration
Field format: numeric only.

Some compounds with recorded fold change of Putrescine concentration:
# Compound, Quantitative result
data = [
    ("CC(=O)Nc1ccc(CC(=O)O)cc1 [Actarit] (20 µM)", 1),
    ("CC(=O)OCC(=O)[C@@]1(O)CC[C@H]2[C@@H]3CCC4=CC(=O)CC[C@]4(C)[C@@]3(F)[C@@H](O)C[C@@]21C [Fludrocortisone acetate] (20 µM)", 1),
]

Now take the following compound into account.
INPUT: Lab note: need fold change of Putrescine concentration with Klebsiella aerogenes DSM 30053 for entry Nc1nc(=O)[nH]cc1F [Flucytosine] (20 µM) , please look it up.
OUTPUT: 1.02

----------
- Tested on: Ruminococcus gnavus DSM 108212
- Method: growth (OD595) fold change vs plate DMSO controls (fold change (ratio)); higher = more growth
- Measurement setup: incubation time: 27 h, anaerobic, 37 °C
Where a name gives a salt, the structure may show the parent alone.
Quantity: growth
Note: the reply should be a number with no unit written.

# Compound, Experimental target, growth
records = [
    ("C[C@]12CCC3=C4CCC(=O)C=C4CC[C@H]3[C@@H]1CC[C@@]2(O)CC#N [Dienogest] (20 µM)", "Ruminococcus gnavus DSM 108212", 0.67),
    ("CC(=O)N[C@@H](CS)C(=O)O [Acetylcysteine] (20 µM)", "Ruminococcus gnavus DSM 108212", 0.985),
    ("NC(=O)c1cccnc1 [Nicotinamide] (20 µM)", "Ruminococcus gnavus DSM 108212", 0.672),
    ("C/C(O)=C(\\C#N)C(=O)Nc1ccc(C(F)(F)F)cc1 [Teriflunomide] (20 µM)", "Ruminococcus gnavus DSM 108212", 0.966),
]

INPUT: Missing value: growth, Ruminococcus gnavus DSM 108212, entry COc1cc(C(=O)NS(=O)(=O)c2ccccc2C)ccc1Cc1cn(C)c2ccc(NC(=O)OC3CCCC3)cc12 [Zafirlukast] (20 µM) . Fill in?
OUTPUT: 0.355

INPUT: Now try CN(C)CCC(c1ccc(Cl)cc1)c1ccccn1 (configuration not stated) [Chlorpheniramine maleate] (20 µM) .
OUTPUT: 0.699

INPUT: And C[C@H](CC[C@@H](O[C@@H]1O[C@H](CO[C@@H]2O[C@H](CO)[C@@H](O)[C@H](O)[C@H]2O)[C@@H](O)[C@H](O)[C@H]1O[C@@H]1O[C@H](CO)[C@@H](O)[C@H](O)[C@H]1O)C(C)(C)O)[C@H]1CC[C@@]2(C)[C@@H]3CC=C4[C@@H](CC[C@H](O[C@@H]5O[C@H](CO[C@@H]6O[C@H](CO)[C@@H](O)[C@H](O)[C@H]6O)[C@@H](O)[C@H](O)[C@H]5O)C4(C)C)[C@]3(C)[C@H](O)C[C@]12C [Mogroside V] (50 µM) ?
OUTPUT: 1.22

INPUT: Queued: C[C@@H](CN1CC(=O)NC(=O)C1)N1CC(=O)NC(=O)C1 [Dexrazoxane hydrochloride] (20 µM)
OUTPUT: 0.949

INPUT: And for Cc1c(Cl)cccc1Nc1ncccc1C(=O)O [Clonixin lysinate] (20 µM) ?
OUTPUT: 1.43

INPUT: Let us now turn to O=C(Oc1cccc2cccnc12)c1ccccc1 [Benzoxiquine] (20 µM)
OUTPUT: 1.13

INPUT: Please do the same for CCOC(=O)[C@H](CCc1ccccc1)N[C@@H](C)C(=O)N(CC(=O)O)C1Cc2ccccc2C1 [Delapril Hydrochloride] (20 µM) as well.
OUTPUT: 1.15

INPUT: Do the same for C#C[C@]1(O)CC[C@H]2[C@@H]3CCC4=C(CCC(=O)C4)[C@H]3CC[C@@]21C [Norethynodrel] (20 µM) please
OUTPUT: 1.02
